Quick reference for GI50 among some compounds
- Tested on: SK-MEL-5 melanoma
- experimental_protocol: NCI tumour cell line growth inhibition, 48 h
measurement_label: GI50

INSERT INTO assay_data (compound, measurement_label, test_result) VALUES
  ('Cc1n(Cc2ccc3ccccc3n2)cc[n+]1Cc1ccc2ccccc2c1', 'GI50', '0.533 µM'),
  ('CCOC(=O)C1=C(C)N(Cc2ccc(Cl)cc2Cl)[C@]2(C#N)C(O)=C(Cl)C(Cl)=C(O)[C@]12C#N', 'GI50', '> 100 µM'),
  ('CC/C(=C(/c1ccc(/C=C/C(=O)O)cc1)c1ccc2[nH]ncc2c1)c1ccc(F)cc1Cl', 'GI50', '8.35 µM'),
  ('CCN(CC)CCS(=O)(=O)CCNc1ccnc2cc(Cl)ccc12', 'GI50', '3.79 µM'),
  ('Cc1nn2c(-c3nc4cc(Cl)c(Cl)cc4[nH]3)c(-c3ccc(F)cc3)nc2s1', 'GI50', '5.86 µM'),
  ('CC(=O)OC1COC(Oc2c(C)c3c4c(c2O)[C@@H](C)CC[C@@H]4[C@@H](C)C[C@H]3C=C(C)C)C(O)C1O (stereo partly drawn)', 'GI50', '16.4 µM'),
  ('O=C1c2ccccc2-c2c1c1ccc([N+](=O)[O-])cc1c(=O)n2CCCCl', 'GI50', '0.874 µM'),
  ('c1ccc2c(c1)[O][Sn][O]2', 'GI50', '20.7 mg/L');

* * *

- Tested on: MDA-MB-231 breast
- experimental_protocol: NCI tumour cell line growth inhibition, 48 h
measurement_label: TGI

INSERT INTO measurements (compound, measurement_label, test_result) VALUES
  ('Cn1c(=O)n2n(c1=O)C(S(=O)c1ccccc1)C2 (stereo not given)', 'TGI', '> 100 µM'),
  ('Cc1cc(/N=C/c2ccc(Cl)cc2)n(-c2ccccc2)n1', 'TGI', '> 100 µM'),
  ('CCOC(=O)C1=CSC2=NC3=C(CCC/C3=C\c3cc(OC)c(OC)c(OC)c3)C(c3cc(OC)c(OC)c(OC)c3)N12 (stereo not given)', 'TGI', '> 100 µM'),
  ('C/C(=N\Nc1nc2ccccc2n1C)c1ccc2ccccc2n1', 'TGI', '28.8 µM'),
  ('CC1=C2CC(C)(C)CC(=O)C2(C)CCC1=O (stereo not given)', 'TGI', '> 100 µM'),
  ('CCN(CC)Cc1cc(Nc2cc(C(F)(F)F)c(C#N)c3nc4ccccc4n23)ccc1O', 'TGI', '5.33 µM'),
  ('COC(=O)[C@]1(C)CCCC2(C)C3=C(CCC21)CC1(CC3)SCCS1 (stereo not given in full)', 'TGI', '> 10 µM'),
  ('CCc1ccc(C2=NN(c3ccc(S(C)(=O)=O)cc3)C(=O)CC2)cc1', 'TGI', '> 60.2 µM'),
  ('CCOC(=O)c1cc2cc(OCc3ccccc3)ccc2[nH]1', 'TGI', '> 100 µM'),
  ('COc1ncc2cc1NS(=O)(=O)c1cccc(c1)C(=O)NCC1=CC=C(S1)c1ncnc3c1SC2=C3C', 'TGI', '12.8 µM');

* * *

- Tested on: SK-MEL-28 melanoma
- experimental_protocol: NCI tumour cell line growth inhibition, 48 h
measurement_label: TGI

INSERT INTO assay_data (compound, system_tested, test_result) VALUES
  ('Clc1ccc(Cn2cc(/C=N/n3cnnc3)c3ccccc32)cc1', 'SK-MEL-28 melanoma', '> 100 µM'),
  ('CCCCOc1ccc(S(=O)(=O)/N=C(\N)Nc2ccc(Cl)cc2)cc1', 'SK-MEL-28 melanoma', '32 µM'),
  ('CC(=O)N1c2ccccc2[C@H]2CCc3c([nH]c4ccccc34)[C@H]21', 'SK-MEL-28 melanoma', '31.1 µM'),
  ('OC(c1cc(-c2ccc(Cl)cc2)nc2c(Cl)cccc12)C1CCCCN1 (stereo unspecified)', 'SK-MEL-28 melanoma', '3.23 µM'),
  ('Nc1c(C(=O)Nc2ccccc2O)[n+]([O-])c2ccccc2[n+]1[O-]', 'SK-MEL-28 melanoma', '> 100 µM'),
  ('Cc1ccc(O)cc1Nc1ccnc2cc(-c3ccccn3)ccc12', 'SK-MEL-28 melanoma', '6.79 µM');

* * *

- Tested on: RXF 393 renal
- experimental_protocol: NCI tumour cell line growth inhibition, 48 h; in the data active means GI50 below about 0.43 µM; inactive means the rest
Possible outcomes: 1 (active), -1 (inactive)

INSERT INTO assay_data (molecule, system_tested, class) VALUES
  ('CC1(C)N=C(N)N=C(N)N1c1ccc(OCCCCNC(=O)Nc2cccc(S(=O)(=O)F)c2)c(Cl)c1', 'RXF 393 renal', -1),
  ('CC(=O)OC1COC(Oc2c(C)c3c4c(c2O)[C@@H](C)CC[C@@H]4[C@@H](C)C[C@H]3C=C(C)C)C(O)C1O (stereo partly specified)', 'RXF 393 renal', -1),
  ('Cc1ccccc1CNc1c2ccccc2nc2ccccc12', 'RXF 393 renal', -1),
  ('O=C(/C=C/c1cccc(Oc2ccc(Cl)cc2)c1)c1ccccc1', 'RXF 393 renal', -1),
  ('CCN(CC)C(=O)CCCCCn1c2ccccc2c2c3c(c4c5ccccc5[nH]c4c21)C(=O)N(O)C3=O', 'RXF 393 renal', -1),
  ('CCOc1cc(/C=C/C(=O)CC(=O)/C=C/c2ccc(OC(=O)CNCCN(CC)CC)c(OCC)c2)ccc1OC(=O)CNCCN(CC)CC', 'RXF 393 renal', -1),
  ('CCN(CC)CCCNc1c2ccc(Cl)cc2nc2ccc(OC)cc12', 'RXF 393 renal', 1),
  ('CC1(C)CC(O)CC(C)(C)N1.CC1(C)CC(O)CC(C)(C)N1.CC1(C)CC(O)CC(C)(C)N1.CC1(C)CC(O)CC(C)(C)N1.Cl.[Ti]', 'RXF 393 renal', -1),
  ('O=C(CN(/C=C/C(=O)C(F)(F)F)c1ccccc1)c1ccc(F)cc1', 'RXF 393 renal', -1),
  ('O=C1c2ccccc2-c2c1c1ccc([N+](=O)[O-])cc1c(=O)n2CCCCl', 'RXF 393 renal', -1),
  ('COc1cc2c3c(n(CCCN4CCSCC4)c(=O)c2cc1OC)-c1cc2c(cc1C3=O)OCO2', 'RXF 393 renal', -1);

* * *

- System: HOP-92 NSCLC
- experimental_protocol: NCI tumour cell line growth inhibition, 48 h
Parameter TGI: see the listing below.
measurement_label: TGI (µM)

INSERT INTO results (compound, inequality_operator, test_result) VALUES
  ('FC(F)(F)c1cnc(N/N=C(/c2ccccc2)c2ccccn2)c(Cl)c1', '=', 23.2),
  ('O=C(Nc1ccc(Cl)c(Cl)c1)C1C(=O)N(c2ccc(Cl)c(Cl)c2)C(=O)/C1=N\O (stereo not given)', '>', 100),
  ('CCCCCC(/C=C/[C@@H]1[C@@H](C(O)CCCCCC(=O)OC)C(=O)C[C@H]1O[Si](C)(C)C(C)(C)C)OCOCCOC (stereo not given in full)', '=', 46.2),
  ('C=CCCCCCCCCC(=O)ON(Cc1ccc(O)c(OC)c1)C(=O)C(F)(F)F', '>', 100),
  ('CCOC(=O)c1cc2cc(OCc3ccccc3)ccc2[nH]1', '>', 100);

* * *

- Test system: M14 melanoma
- experimental_protocol: NCI tumour cell line growth inhibition, 48 h
Where a SMILES comes first, the peptide text is derived from it. The star is where a group is joined. Boc = CC(C)(C)OC(=O)*; tBu = CC(C)(C)*
measurement_label: TGI

INSERT INTO results (molecule, test_result) VALUES
  ('C=C1C(=O)O[C@@H]2[C@H]1C[C@H](I)[C@@]1(C)CC[C@H](O1)[C@](C)(I)CCCC(C)[C@@H]2O (stereo not given in full)', '19.4 µM'),
  ('CC(C)c1cc(C(C)C)c(Cl)c(Cl)c1O (tested in a mixture with another compound)', '> 100 µM'),
  ('Cc1n(Cc2ccc3ccccc3n2)cc[n+]1Cc1ccc2ccccc2c1', '10.7 µM'),
  ('Nc1n[nH]c2ccc([C@@H]3Nc4c(F)cc5[nH]ncc5c4[C@H]4C5CCC(C5)[C@@H]34)cc12 (stereo not given in full)', '> 32.8 µM'),
  ('CC(=O)OC1CC[C@@]2(C)C(=CC[C@@H]3[C@@H]2CC[C@]2(C)C(OC(C)=O)[C@H](n4ccnc4)C[C@@H]32)C1 (stereo not given in full)', '31.2 µM'),
  ('O=C(Nc1nc2c(s1)CCc1c-2c(Br)n(Cc2ccccc2)c1Br)c1ccccc1', '> 100 µM'),
  ('Nc1nc(-c2ccccc2)cc(-c2cc(Cl)ccc2O)n1', '> 100 µM'),
  ('OC1CSCCSCCCSCCSC1', '> 100 µM'),
  ('CCOP(=O)(/C=C\n1ccc(=O)[nH]c1=O)OCC', '> 100 µM'),
  ('Nc1ncnc2sc(Nc3ccccc3)nc12', '> 100 µM'),
  ('CCc1ccc(C2=NN(c3ccc(S(C)(=O)=O)cc3)C(=O)CC2)cc1', '> 100 µM'),
  ('Oc1c(I)cc(Cl)c2cccnc12', '4.37 µM'),
  ('O=C1NC2=NN=C(c3ccc(Br)cc3)CN2NC12c1ccccc1-c1ccccc12', '> 100 µM'),
  ('COc1cc2c3c(n(CCCN4CCSCC4)c(=O)c2cc1OC)-c1cc2c(cc1C3=O)OCO2', '> 100 µM'),
  ('CC(OC(C)(C)C)C(NC(=O)C(N)CCCCNC(=O)OC(C)(C)C)C(=O)NC(Cc1ccccc1)C(=O)O (stereo not given) (H-Lys(Boc)-Thr(tBu)-Phe-OH; configuration not given here)', '> 100 µM'),
  ('CCN(CCNc1ccc(C)c2sc3cc(Cl)ccc3c(=O)c12)CC(C)(C)O', '4.01 µM'),
  ('CCN(CCCl)c1cc(CN(C)C)cc(NC(=O)c2cc(C(=O)Nc3cc(CN(C)C)cc(N(CC)CCCl)c3)n(C)n2)c1', '2.01 µM'),
  ('CC(C)(CC1(C)NC(=O)NC1=O)OCc1ccccc1 (stereo not given)', '> 100 µM'),
  ('CON(C)C(=O)C(C)NC(=O)OC(C)(C)C (stereo not given)', '> 100 µM'),
  ('Nc1nc2c(c(=O)[nH]1)NC(CCNc1ccc(C(=O)O)cc1)CN2 (stereo not given)', '> 100 µM');

All values here come from PubChem BioAssay (NCI).
